- TEST SYSTEM: Cytochrome P450 2C19 (Homo sapiens)
- RUN DESCRIPTION: Cytochrome P450 Family 2 Subfamily C Member 19 (CYP2C19) small molecule antagonists: luciferase reporter qHTS assay (AID 1671197); further: nearly all actives have a fitted effect of over 65% in size; further: potency means the concentration at half of the fitted maximal effect
- APPLIED CONDITIONS: P450-Glo CYP2C19 enzyme, luciferin luminescence, 1 h; series mostly up to 115 µM
Records with an inconclusive call do not appear. Activity calls are given as the source filed them. The call rests on the fitted dose curve; in most records, active means well fitted inhibition curve with a large enough effect in the repeat runs; inconclusive means weak or mixed curves; inactive means no such curve, though single readings can be large or run the other way.
MEASURED ATTRIBUTE: Potency

CCCOC(=O)c1c(Cl)c(Cl)c(Cl)c(Cl)c1C(=O)OCCC = 7.1 µM (active)
CSSc1ccoc1C = inactive
C=CC(=O)NC(C)C = inactive
Cc1ccc(NC(=O)N(C)C)cc1NC(=O)N(C)C = inactive
CC(CN(CCN(CC(C)OCCO)CC(C)OCCO)CC(C)OCCO)OCCO (configuration not stated) = 86.1 µM (active)
O=C1[C@@H]2[C@H]3CC[C@H](C3)[C@@H]2C(=O)N1CCCCN1CCN(c2ncccn2)CC1 = inactive
CCCCCCCC(=O)Oc1c(Br)cc(C#N)cc1Br = 35.5 µM (active)
COc1ccc(-c2cc(=S)ss2)cc1 = 9.77 µM (active)

Short answer for CC(=O)OC(C)C[N+](C)(C)C (configuration not stated) : Potency was inactive

Short answer for `COc1ccc(CCN(C)CCCN2CCc3cc(OC)c(OC)cc3CC2=O)cc1OC` : Potency was inactive

Short answer for `Cc1oc(=O)oc1COC(=O)[C@@H]1N2C(=O)[C@@H](NC(=O)[C@H](N)c3ccccc3)[C@H]2SC1(C)C` : Potency was inactive

Short answer for `COc1ccc(C)cc1` : Potency was 79.6 µM (active)

----------
- RUN DESCRIPTION: qHTS assay to identify small molecule antagonists of the estrogen receptor alpha (ER-alpha) signaling pathway using the BG1 cell line in the presence of 0.1 nM 17-beta-estradiol - cell viability counter screen (AID 1259241); further: nearly all actives have a fitted effect of over 40% in size
- APPLIED CONDITIONS: VM7Luc4E2 (BG1) viability, CellTiter-Fluor protease, 22 h, 0.1 nM estradiol agonist added; series mostly up to 92.4 µM
Records with an inconclusive call do not appear. The source made the active and inactive calls. The call rests on the fitted dose curve; in most records, active means well fitted cell-killing curve with a large enough effect in the repeat runs; inconclusive means weak or mixed curves, or effect the other way; inactive means flat fitted curve, though single readings scatter.
MEASURED ATTRIBUTE: outcome

For orientation, consider the following solved cases.
c1ccc(CNc2ncnc3c2ncn3C2CCCCO2)cc1 (centres undefined) = inactive
CCCCCCCC(=O)Oc1c(Br)cc(C#N)cc1Br = inactive
CCCCCCCCCCCCCOS(=O)(=O)O = inactive
Cc1ccc(S(=O)(=O)NC(=O)NC2CCCCC2)cc1 = inactive
CCCCOC(=O)CCCCC(=O)OCCCC = inactive
CC12CC3CC(C)(C1)CC(N)(C3)C2 = inactive
CCN(CC)CCNC(=O)c1cc(Cl)c(N)cc1OC = inactive
CC(C)OC(=O)c1ccccc1C(=O)OC(C)C = inactive

Short answer for `O=C(NS(=O)(=O)/C=C/c1ccccc1)c1ccc(F)cc1Cl` : outcome was inactive

Short answer for `Cc1c[nH]c2ccccc12` : outcome was inactive

Short answer for `COC(OC)OC` : outcome was inactive

Short answer for O=C(NC(Cc1cc(=O)[nH]c2ccccc12)C(=O)O)c1ccc(Cl)cc1 (centres undefined) : outcome was inactive

Short answer for `CC(=O)C(=O)CC(C)C` : outcome was inactive

Short answer for `Cc1ccc2c(c1)CCCN2` : outcome was inactive

----------
- RUN DESCRIPTION: qHTS assay for identifying genotoxic compounds that show differential cytotoxicity against isogenic chicken DT40 cell lines with known DNA damage response pathways - Rad54/Ku70 mutant cell line (AID 743015); further: nearly all actives have a fitted effect of over 60% in size; further: potency means the concentration at half of the fitted maximal effect
- APPLIED CONDITIONS: DT40 Rad54/Ku70 mutant viability, CellTiter-Glo, 40 h; series mostly up to 66.8 µM
Results filed as inconclusive are left out. Active and inactive are the calls of the source. Calls come from the whole dose curve; as a rule, active = well fitted cell-killing curve with a large enough effect in the repeat runs; inconclusive = weak or mixed curves; inactive = no such curve, though single readings can be large or run the other way.
MEASURED ATTRIBUTE: Potency

For orientation, consider the following solved cases.
O=C(O)/C=C/c1ccc(O)c(O)c1 = inactive
Cc1cc(CCC(=O)OCCOCCOCCOC(=O)CCc2cc(C)c(O)c(C(C)(C)C)c2)cc(C(C)(C)C)c1O = 23.7 µM (active)
CCCCCC = inactive
CN1C(CSCC(F)(F)F)Nc2cc(Cl)c(S(N)(=O)=O)cc2S1(=O)=O (stereo not given) = 23.7 µM (active)
CO[C@@H]1[C@@H](OC)[C@H](C)[C@@](O)(CC(=O)O)O[C@H]1[C@H](C)[C@H]1O[C@@]2(CC[C@@](C)([C@H]3CC[C@@](C)([C@@H]4O[C@@H]([C@H]5O[C@](C)(O)[C@H](C)C[C@@H]5C)C[C@@H]4OC4C[C@H](OC)[C@@H](OC)[C@H](C)O4)O3)O2)C[C@H](O)[C@H]1C (stereo not given in full) = 0.211 µM (active)
O=C(O)CO = inactive
C=CCOC(=O)COCCC(C)C = inactive
CC/C=C\C/C=C\C/C=C\CCCCCCCC(=O)OCC = 70.1 µM (active)

Short answer for `Nc1cccc2c(N)cccc12` : Potency was 41.6 µM (active)

Short answer for `O=[N+]([O-])c1ccc2ncccc2c1` : Potency was inactive

----------
- RUN DESCRIPTION: qHTS assay to identify small molecule antagonists of the peroxisome proliferator-activated receptor delta (PPARd) signaling pathway - cell viability counter screen (AID 743213); further: nearly all actives have a fitted effect of over 50% in size
- APPLIED CONDITIONS: PPARd-bla HEK293H viability, CellTiter-Glo luminescence, 17 h; series mostly up to 62 µM
Results filed as inconclusive are left out. Activity calls are given as the source filed them. The call rests on the fitted dose curve; in most records, active means well fitted cell-killing curve with a large enough effect in the repeat runs; inconclusive means weak or mixed curves; inactive means no such curve, though single readings can be large or run the other way.
Reply using exactly one outcome from YES = active, NO = inactive

I would be grateful if you could indicate the recorded call for `CC(=O)OCCC1CCCCC1` .
NO

I would be grateful if you could indicate the recorded call for `O=S(=O)(Cl)c1c(Cl)cccc1Cl` .
NO

I would be grateful if you could indicate the recorded call for `CCOC(=O)c1c(N)sc2c1CCN(Cc1ccccc1)C2` .
NO

I would be grateful if you could indicate the recorded call for `Nc1ccc(F)cc1` .
NO

I would be grateful if you could indicate the recorded call for `O=C1OC[C@H](Cc2cccc(O)c2)[C@H]1Cc1cccc(O)c1` .
NO

I would be grateful if you could indicate the recorded call for `ClC1=C(Cl)C1(Cl)Cl` .
NO

I would be grateful if you could indicate the recorded call for CO[C@@H]1[C@@H](OC)[C@H](C)[C@@](O)(CC(=O)O)O[C@H]1[C@H](C)[C@H]1O[C@@]2(CC[C@@](C)([C@H]3CC[C@@](C)([C@@H]4O[C@@H]([C@H]5O[C@](C)(O)[C@H](C)C[C@@H]5C)C[C@@H]4OC4C[C@H](OC)[C@@H](OC)[C@H](C)O4)O3)O2)C[C@H](O)[C@H]1C (stereo not given in full) .
YES

I would be grateful if you could indicate the recorded call for `Cc1cc(CCC(=O)OCCOCCOCCOC(=O)CCc2cc(C)c(O)c(C(C)(C)C)c2)cc(C(C)(C)C)c1O` .
NO

I would be grateful if you could indicate the recorded call for O=C(NC(Cc1cc(=O)[nH]c2ccccc12)C(=O)O)c1ccc(Cl)cc1 (stereo not given) .
NO

I would be grateful if you could indicate the recorded call for `Cc1ccc(Cl)cc1N` .
NO

I would be grateful if you could indicate the recorded call for `NC(=O)c1ccccc1[N+](=O)[O-]` .
NO

I would be grateful if you could indicate the recorded call for CNC1CCCN(c2c(F)cc3c(=O)c(C(=O)O)cn(C4CC4)c3c2OC)C1 (stereo not given) .
NO

I would be grateful if you could indicate the recorded call for `CC(C)c1ccc(C(=O)N=C(N)N)cc1S(C)(=O)=O` .
NO

I would be grateful if you could indicate the recorded call for `Cc1ccc2nc(N)[nH]c(=O)c2c1Sc1ccncc1` .
NO

I would be grateful if you could indicate the recorded call for `Cc1cccc2sc(N)nc12` .
NO

I would be grateful if you could indicate the recorded call for `CC(C)(O)c1coc(S(=O)(=O)NC(=O)Nc2c3c(cc4c2CCC4)CCC3)c1` .
NO

I would be grateful if you could indicate the recorded call for `C1CCCCC1` .
NO

I would be grateful if you could indicate the recorded call for `Oc1ccc2c(c1)Cc1ccccc1-2` .
NO

I would be grateful if you could indicate the recorded call for COc1ccc2nc(S(=O)Cc3ncc(C)c(OC)c3C)[nH]c2c1 (stereo not given) .
NO

I would be grateful if you could indicate the recorded call for `O=C(O)/C=C/c1ccc(O)c(O)c1` .
NO

I would be grateful if you could indicate the recorded call for `NC(=O)CCCCC(N)=O` .
NO

I would be grateful if you could indicate the recorded call for `C=Cc1ccc(OC(C)=O)cc1` .
NO

I would be grateful if you could indicate the recorded call for `O=C1OC(=O)c2c(Br)c(Br)c(Br)c(Br)c21` .
NO

I would be grateful if you could indicate the recorded call for `C=CC(=O)O` .
NO

I would be grateful if you could indicate the recorded call for `CC[C@H]1OC(=O)[C@H](C)[C@@H](O[C@H]2C[C@@](C)(OC)[C@@H](O)[C@H](C)O2)[C@H](C)[C@@H](O[C@@H]2O[C@H](C)C[C@H](N(C)C)[C@H]2O)[C@](C)(O)C[C@@H](C)C(=O)[C@H](C)[C@@H](O)[C@]1(C)O` .
NO

I would be grateful if you could indicate the recorded call for `Cc1ccc(NC(=O)N(C)C)cc1NC(=O)N(C)C` .
NO

I would be grateful if you could indicate the recorded call for `CC(=O)NCCO` .
NO

I would be grateful if you could indicate the recorded call for `CCCCCCCCCCCCCOC(=O)CCSCCC(=O)OCCCCCCCCCCCCC` .
NO

I would be grateful if you could indicate the recorded call for `CC/C=C\C/C=C\C/C=C\CCCCCCCC(=O)OCC` .
NO

I would be grateful if you could indicate the recorded call for `CC(=O)NNC(C)=O` .
NO

I would be grateful if you could indicate the recorded call for `CCC(=O)OCc1ccc(OC)cc1` .
NO

I would be grateful if you could indicate the recorded call for CC(C(=O)O)c1ccc(C(=O)c2cccs2)cc1 (stereo not given) .
NO

I would be grateful if you could indicate the recorded call for `CNc1c2c(nn1C)CCCC2` .
NO

I would be grateful if you could indicate the recorded call for `CCCCCCCCCCCCCCCC(=O)OCC` .
NO

I would be grateful if you could indicate the recorded call for `Cc1ccc(N(CCO)CCO)cc1` .
NO

I would be grateful if you could indicate the recorded call for `COc1cc(OC)c2ccc(=O)oc2c1` .
NO

I would be grateful if you could indicate the recorded call for `Cc1ccc(S(=O)(=O)NC(=O)NC2CCCCC2)cc1` .
NO

I would be grateful if you could indicate the recorded call for `COc1ccc(C(=O)NCc2ccc(OCCN(C)C)cc2)cc1OC` .
NO

I would be grateful if you could indicate the recorded call for `CCCCCCCC(=O)OCCCCCC` .
NO

I would be grateful if you could indicate the recorded call for `OCC(CO)n1cnc(-c2ccc(F)cc2)c1-c1ccnc(Oc2ccccc2)n1` .
NO

I would be grateful if you could indicate the recorded call for `Cc1ccc2c(c1[N+](=O)[O-])C(=O)c1ccccc1C2=O` .
NO

I would be grateful if you could indicate the recorded call for `CC12CC3CC(C)(C1)CC(N)(C3)C2` .
NO

I would be grateful if you could indicate the recorded call for `[Cl][Nd]([Cl])[Cl]` .
NO

I would be grateful if you could indicate the recorded call for `CCCCC[C@H](O)/C=C/[C@H]1[C@H](O)CC(=O)[C@@H]1C/C=C\CCCC(=O)O` .
NO

I would be grateful if you could indicate the recorded call for `O=CNNC=O` .
NO

I would be grateful if you could indicate the recorded call for CC(C)C(O)C(C)(C)CO (stereo not given) .
NO

I would be grateful if you could indicate the recorded call for `C=C(C)C(=O)OCCC(F)(F)C(F)(F)C(F)(F)C(F)(F)C(F)(F)C(F)(F)F` .
NO

I would be grateful if you could indicate the recorded call for `CCN(CC)CC(=O)Nc1c(C)cccc1C(=O)OC` .
NO

I would be grateful if you could indicate the recorded call for `COc1ccc(C)cc1` .
NO

I would be grateful if you could indicate the recorded call for `CC(C)(O)CCc1ccccc1` .
NO
